Entries and their solubility kinetic values follow.
run.conditions: buffer; pH 7.4; 200.0 µM
readout.kind: solubility kinetic

compound	readout.kind	measured
Cc1nc([N+](=O)[O-])cn1C(C)C	solubility kinetic	> 25.4 µg/mL
Cc1c(-c2ccc(Cl)cc2)[n+](=O)c(-c2ccccc2)cn1[O-]	solubility kinetic	> 46.9 µg/mL
Cc1ccc(C(=O)NCCc2ccccc2)cc1N1CCCC1=O	solubility kinetic	> 48.4 µg/mL
COc1cccc(NC(=O)c2ccc3c(c2)OCCO3)c1	solubility kinetic	> 42.8 µg/mL
COC(=O)C1=C(N)Oc2cc(C)[nH]c(=O)c2C1c1ccc(Cl)cc1 (configuration not stated)	solubility kinetic	1.7 µg/mL
CC1CCN(C(=S)NC(=O)c2ccco2)CC1	solubility kinetic	> 37.8 µg/mL
CC(C)S(=O)(=O)c1csc(NC(=O)Nc2cc(Cl)ccc2Cl)c1Cl	solubility kinetic	< 0.5 µg/mL
CN1CCN(C(=O)C23CC4CC(C)(CC(C)(C4)C2)C3)CC1.Cl	solubility kinetic	47.8 µg/mL
NC(=O)C1CCN(S(=O)(=O)Cc2ccccc2Cl)CC1	solubility kinetic	> 47.5 µg/mL
Br.CCn1c2c(c(=N)c3ccccc31)CCC2	solubility kinetic	> 44 µg/mL
Cc1ccc(C(=O)NCC(C)NC(=O)c2ccc(C)c(C)c2)cc1C (configuration not stated)	solubility kinetic	3.4 µg/mL
Cn1c(SCC(=O)N2CCCC2=O)nc2ccccc2c1=O	solubility kinetic	13.2 µg/mL

====

Entries and their solubility kinetic values follow.
run.conditions: buffer; pH 7.4; 200.0 µM

compound	solubility kinetic
Nc1ncnc2c1ncn2CCc1ccccc1	> 35.9 µg/mL
CN(c1ccc(C(=O)COC(=O)C2CC2)cc1)S(C)(=O)=O	> 46.7 µg/mL
CCCCN(C(C)=O)C1CC(=O)N(c2ccc(OCCC)cc2)C1=O (configuration not stated)	> 52 µg/mL
O=S(=O)(NCc1cccnc1)c1ccc(Cl)c2ccccc12	> 49.9 µg/mL
CN1C(=S)SC(/[N+]([O-])=C\c2ccccc2F)C1(C)C (configuration not stated)	> 44.8 µg/mL
CN(C)CCCNc1oc(/C=C/c2ccccc2)nc1C#N	> 44.5 µg/mL
CN1CCN(c2c(F)cc3c(=O)c(C(=O)[O-])cn4c3c2OCN4C)CC1	> 54.2 µg/mL

====

run.conditions: buffer; pH 7.4; 200.0 µM
Entries and their solubility kinetic values follow.

compound	solubility kinetic
CCc1cc(=O)oc2c(C)c(OC(C)C(=O)N3CCC[C@@H]3C(=O)O)ccc12 (stereo not given in full)	> 56 µg/mL
CCOc1ccccc1Nc1nnc(SCC(=O)N(C)C2CCS(=O)(=O)C2)s1 (stereo not given)	> 66.4 µg/mL
Cc1csc(SCC(=O)NC2CCCC2)n1	> 38.5 µg/mL
O=C(c1cnccn1)N1CCN(S(=O)(=O)c2cccc(Cl)c2)CC1	> 55 µg/mL
COCCCNC(=O)C1CCN(c2ccc(N3CCOCC3)nn2)CC1	> 54.5 µg/mL
O=C(CSc1nccc(=O)[nH]1)Nc1cccc2ccccc12	> 46.7 µg/mL
O=C1CCc2cc(S(=O)(=O)NC3CCCCC3)ccc2N1	> 46.3 µg/mL
O=C(O)c1ccc2ncsc2c1	> 26.9 µg/mL
CCOC(=O)Nc1cccc(NC(=O)c2ccccc2F)c1	> 45.3 µg/mL
O=S(=O)(c1ccccc1)N1CCc2ccccc2C1	< 0.6 µg/mL
